Assay: inhibitors of larval lipid processing in zebrafish, primary screen, whole organism, PED6 fluorescence, gall bladder and intestine (AID 686);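 note: larvae 5 to 7 days old with five fish per well; signal comes from phospholipase A2 cleavage of quenched PED6 carried via bile; overnight exposure to compound and PED6 before scoring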
Settings: Zebrafish larvae PED6 lipid processing, fluorescence scoring; screened at 20 µM (by protocol)
Activity calls are given as the source filed them.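 Rule for the calls: active = a full or partial loss of lipid-probe fluorescence in the fish gall bladder, intestine or both, judged by eye; inactive = no fluorescence loss, or compound toxic to the fish.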
ASSAY ENDPOINT: outcome

O=C1OC2CCC1(c1ccccc1)C2 (stereo unspecified)	inactive
Cn1c(=O)c2[nH]cnc2n(C)c1=O	inactive
CCN(CC)CCCC1(CN)OCCc2ccccc21 (stereo unspecified)	inactive
Cc1ccc(NC(=O)CSC2=C(C#N)C(c3ccco3)C3=C(CCCC3=O)N2)cc1 (stereo unspecified)	inactive
Cn1c(=O)n(CCc2ccccc2)c(=O)c2c1ncn2Cc1ccccc1	inactive
Nc1ccc(S(=O)(=O)c2ccc(N)cc2)cc1	inactive
CCOc1cc(C2Nc3ccccc3C(=O)N2c2ccccc2OC)ccc1O (stereo unspecified)	inactive
CCCCNC(=O)N1CCOCCOCCN(C(=O)NCCCC)CCOCC1	inactive
O=S(=O)(c1ccccc1)N1CCC(N2CCN(c3ccccc3)CC2)CC1	inactive
CCCCOC(=O)CSc1nc(N)c(C#N)c(-c2ccc(OC)cc2)c1C#N	inactive
CC(=O)[C@@]1(O)CC[C@H]2[C@@H]3CCC4=CC(=O)CC[C@]4(C)[C@H]3[C@@H](O)C[C@@]21C	inactive

====

Biological target: Voltage-gated potassium channel subunit beta-2 (Rattus norvegicus) (UniProt P62483)
Sequence (P62483 whole entry, looked up): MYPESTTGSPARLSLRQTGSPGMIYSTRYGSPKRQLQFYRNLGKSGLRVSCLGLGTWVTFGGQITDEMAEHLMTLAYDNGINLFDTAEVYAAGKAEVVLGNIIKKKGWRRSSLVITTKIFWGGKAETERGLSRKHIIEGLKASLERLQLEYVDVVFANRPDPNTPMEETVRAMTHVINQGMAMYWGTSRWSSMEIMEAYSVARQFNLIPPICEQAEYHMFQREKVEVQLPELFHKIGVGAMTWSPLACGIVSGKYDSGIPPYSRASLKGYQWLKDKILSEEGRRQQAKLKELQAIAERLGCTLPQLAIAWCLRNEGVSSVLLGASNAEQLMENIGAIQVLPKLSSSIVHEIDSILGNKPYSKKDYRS
Experiment: KvBeta positive modulators, primary screen, biochemical, NADPH fluorescence (AID 623);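 note: fluorescence intensity change per second fitted from 20 to 320 s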
Conditions: Recombinant KvBeta, NADPH fluorescence decrease slope, 10 min; at 10 µM; hits give low values
ASSAY ENDPOINT: NADPH fluorescence slope

COc1cccc(-c2nnc3sc(-c4ccc(C)cc4)nn23)c1	-0.000137
Cc1cc2c(c(=O)n1CC1CCCO1)C(c1ccc3c(c1)OCO3)C(C#N)=C(N)O2 (configuration not stated)	-4.9e-05
CCCC1Cc2c(sc3ncnc(N)c23)CO1 (configuration not stated)	-4.2e-05
Cc1cc(Cn2ccnc2)c(C)cc1Cn1ccnc1	-0.000121
COCc1[nH]nc2c1C(c1cccc(OC)c1)C(C#N)=C(N)O2 (configuration not stated)	-3.7e-05
CC(C)Cc1nc(N2CCCCC2)c(C#N)c2c1CCC2	-3.4e-06
CC(C(=O)O)c1ccc(-c2ccccc2)c(F)c1 (configuration not stated)	-6e-05
Cc1csc2nc(CSc3nc4ccccc4o3)cn12	-5.7e-05
CN(C)c1ccc(-c2nn3c(-c4ccc(Cl)cc4)nnc3s2)cc1	-0.000319
CCC(C(=O)OCCN(CC)CC)c1ccccc1 (configuration not stated)	-3.7e-05
O=S(CCc1ccncc1)Cc1ccccc1 (configuration not stated)	-0.000147
CC(C)Sc1nc(N2CCCC2)c2c(c1C#N)CC(C)(C)OC2	4.7e-06

====

Parameter inhibition: see the listing below.
Assay: inhibitors of E-selectin induction by TNFa, primary screen, imaging, HUVEC, immunofluorescence, MLSMR starter and 10KST1 sets (AID 487);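 note: signal is fraction of cell area covered by stained E-selectin grains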
Details: HUVEC TNFalpha-induced E-selectin immunofluorescence imaging, at 2 µM; hits give high values
Activity calls are given as the source filed them.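 The calls were made as follows: active = visually confirmed hit in the image check and inhibition above 20%; inconclusive = visually confirmed hit but inhibition not above 20%; inactive = no visual hit in the image check.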
ASSAY ENDPOINT: inhibition

Cc1ccccc1OCC(O)Cn1c(N2CCN(c3ccccc3)CC2)nc2c1c(=O)[nH]c(=O)n2C (stereo not drawn)	-227% (inactive)
COC(=O)c1cc(Br)c(=O)n(CCc2ccc(F)cc2)c1	6.1% (inactive)
O=C(NC1CCS(=O)(=O)C1)N1CCCCC1 (stereo not drawn)	-68.8% (inactive)
CCOC(=O)c1[nH]c2ccc(Br)cc2c1NC(=O)CCN1CCN(C(=O)OCC)CC1	-94.6% (inactive)
CSC1=C(C#N)C(c2ccc(C)s2)CC(=O)N1 (stereo not drawn)	13.9% (inactive)
CCCCCn1c2nc3ccccc3nc2c2c(=O)n(CC(C)C)cnc21	-73.9% (inactive)
COC(=O)c1ccc(Cn2nnc3c(sc4nc(N5CCOCC5)c5c(c43)CCCC5)c2=O)o1	-101% (inactive)
CC1CN(c2oc(-c3ccccc3Cl)nc2C#N)CC(C)O1 (stereo not drawn)	-154% (inactive)
CCCc1nc(N2CCOCC2)c(C#N)c2c1CCCC2	-58.9% (inactive)
O=C(c1cccc2ccccc12)N1CCC(N2CCN(c3ccccc3)CC2)CC1	-64.1% (inactive)
CCOc1cccc(-c2nnc3sc(-c4ccco4)nn23)c1	-152% (inactive)
CN1C(=O)NC(NC(=O)c2ccco2)(C(F)(F)F)C1=O (stereo not drawn)	-78% (inactive)
CCOC(=O)N1CCN(C(=O)c2cn(CC)c3cc(N4CCN(C)CC4)c(F)cc3c2=O)CC1	-20.9% (inactive)
COc1ccc(OC)c(C2=Nn3c(nnc3-c3ccco3)SC2)c1	-139% (inactive)
CC(C)(C)OC(=O)N1CC=C2C(C#N)=C(N)C(C#N)(C#N)[C@H](c3cccnc3)[C@H]2C1	28.8% (inactive)
Oc1c(Cl)cc(Cl)cc1CNc1ccc(Br)cn1	-9.9% (inactive)
COc1ccc(Cl)cc1C(=O)NCCc1ccc(S(=O)(=O)NC(=O)NC2CCCCC2)cc1	48.6% (inactive)
CCC1=C(C(=O)OC)C(c2cc(OC)ccc2OC)C(C#N)=C(N)O1 (stereo not drawn)	-58% (inactive)
NC(=O)CSc1nc(N)c2c3c(sc2n1)CCCCC3	47.7% (inactive)
COc1ccccc1N=Cc1nc(-c2ccccc2)oc1OC(C)=O	-86.5% (inactive)
Cc1oc2cc(O)ccc2c(=O)c1-c1cnn(-c2ccccc2)c1	-212% (inactive)
CCOc1ccc(C2C(C#N)=C(N)SC(N)=C2C#N)cc1OC	22.8% (inactive)
O=C(O)c1nsc(Cl)c1Cl	39.2% (inactive)
